Let's look at some molecules and their measured IC50.
- system: Core antigen (Hepatitis B virus, UniProt Q03732)
- Sequence (Q03732 whole entry): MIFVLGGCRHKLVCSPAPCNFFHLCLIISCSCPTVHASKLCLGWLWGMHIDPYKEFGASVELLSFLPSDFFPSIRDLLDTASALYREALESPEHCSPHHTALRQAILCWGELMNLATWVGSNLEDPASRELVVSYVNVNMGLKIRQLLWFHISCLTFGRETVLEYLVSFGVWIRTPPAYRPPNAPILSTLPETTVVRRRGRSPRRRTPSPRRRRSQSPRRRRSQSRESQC
- measurement protocol: Inhibition of Hepatitis B virus core protein expressed in HBC cells derived from HEK293T cells assessed as reduction in HBcAg level incubated for 6 hrs by Nano-glo luciferase assay
- Format: cell-based
- test parameters: read-out: IC50
assay metric: IC50 (µM)

>  <molecule>
COc1ccc(Cc2nc3ccccc3n2CCCNc2ccccc2)cc1

>  <assay metric>
IC50

>  <measured number>
1.26

$$$$
>  <molecule>
COc1ccc(Cc2nc3ccccc3n2C)cc1

>  <assay metric>
IC50

>  <measured number>
4.85

$$$$
>  <molecule>
COc1ccc(Cc2nc3ccccc3n2CCO)cc1

>  <assay metric>
IC50

>  <measured number>
2.37

$$$$
>  <molecule>
COc1ccc(Cc2nc3ccccc3n2CC(=O)COc2ccccc2)cc1

>  <assay metric>
IC50

>  <measured number>
3.67

$$$$
>  <molecule>
CCCn1c(Cc2ccc(OC)cc2)nc2ccccc21

>  <assay metric>
IC50

>  <measured number>
11.4

$$$$
>  <molecule>
COc1ccc(Cc2nc3ccccc3n2CCCCCCO)cc1

>  <assay metric>
IC50

>  <measured number>
3.36

$$$$
>  <molecule>
CCOC(=O)n1c(Cc2ccc(OC)cc2)nc2ccccc21

>  <assay metric>
IC50

>  <measured number>
2.18

$$$$
>  <molecule>
COc1ccc(Sc2nc3ccccc3n2C(C)=O)cc1

>  <assay metric>
IC50

>  <measured number>
12

$$$$
>  <molecule>
COc1ccc([S+]([O-])c2nc3ccccc3[nH]2)cc1 (configuration not stated)

>  <assay metric>
IC50

>  <measured number>
36.5

$$$$
>  <molecule>
CCOC(=O)Cn1c(Cc2ccc(OC)cc2)nc2ccccc21

>  <assay metric>
IC50

>  <measured number>
9.41

$$$$
>  <molecule>
OCCn1c(Sc2cccc(F)c2)nc2ccccc21

>  <assay metric>
IC50

>  <measured number>
49.3

$$$$
>  <molecule>
COCC(O)Cn1c(Cc2ccc(OC)cc2)nc2ccccc21 (configuration not stated)

>  <assay metric>
IC50

>  <measured number>
3.32

$$$$

----------
Let's look at some compounds and their measured selectivity ratio.
- System: Hepatitis B virus core protein
- measurement protocol: Selectivity index, ratio of CC50 for human HepG2 cells to IC50 for Hepatitis B virus core protein expressed in HEK293T cells
- Assay type: toxicity, cell-based
- test parameters: read-out: Ratio CC50/IC50

>  <compound>
CCCCCn1c(Cc2ccc(OC)cc2)nc2ccccc21

>  <system>
Hepatitis B virus core protein

>  <cmp>
=

>  <selectivity ratio>
6.1

$$$$
>  <compound>
OCCn1c(Sc2cccc(F)c2)nc2ccccc21

>  <system>
Hepatitis B virus core protein

>  <cmp>
>

>  <selectivity ratio>
2.03

$$$$
>  <compound>
COc1ccc(CCc2nc3ccccc3[nH]2)cc1

>  <system>
Hepatitis B virus core protein

>  <cmp>
>

>  <selectivity ratio>
2.91

$$$$
>  <compound>
COc1ccc(Sc2nc3ccccc3n2CCCCCO)cc1

>  <system>
Hepatitis B virus core protein

>  <cmp>
>

>  <selectivity ratio>
167

$$$$
>  <compound>
COc1ccc([S+]([O-])c2nc3ccccc3[nH]2)cc1 (stereo unspecified)

>  <system>
Hepatitis B virus core protein

>  <cmp>
=

>  <selectivity ratio>
0.93

$$$$
>  <compound>
COc1ccc(Cc2nc3ccccc3o2)cc1

>  <system>
Hepatitis B virus core protein

>  <cmp>
>

>  <selectivity ratio>
2.76

$$$$
>  <compound>
COc1ccc(Cc2nc3ccccc3n2CCCOc2cccnc2)cc1

>  <system>
Hepatitis B virus core protein

>  <cmp>
=

>  <selectivity ratio>
11.1

$$$$
>  <compound>
COc1ccc(Cc2nc3ccccc3n2CC(=O)COc2ccccc2)cc1

>  <system>
Hepatitis B virus core protein

>  <cmp>
=

>  <selectivity ratio>
2.79

$$$$
>  <compound>
CCOC(=O)n1c(Cc2ccc(OC)cc2)nc2ccccc21

>  <system>
Hepatitis B virus core protein

>  <cmp>
=

>  <selectivity ratio>
20.3

$$$$
>  <compound>
COCC(O)Cn1c(Cc2ccc(OC)cc2)nc2ccccc21 (stereo unspecified)

>  <system>
Hepatitis B virus core protein

>  <cmp>
>

>  <selectivity ratio>
30.1

$$$$
>  <compound>
CCCn1c(Cc2ccc(OC)cc2)nc2ccccc21

>  <system>
Hepatitis B virus core protein

>  <cmp>
>

>  <selectivity ratio>
8.79

$$$$
>  <compound>
COc1ccc(Cc2nc3ccccc3n2C)cc1

>  <system>
Hepatitis B virus core protein

>  <cmp>
=

>  <selectivity ratio>
4.55

$$$$
>  <compound>
COc1ccc(Cc2nc3ccccc3n2CCCOC(C)=O)cc1

>  <system>
Hepatitis B virus core protein

>  <cmp>
>

>  <selectivity ratio>
7.15

$$$$
>  <compound>
Clc1cccc(Sc2nc3ccccc3[nH]2)c1

>  <system>
Hepatitis B virus core protein

>  <cmp>
>

>  <selectivity ratio>
3.77

$$$$
>  <compound>
COc1ccc(Cc2nc3ccccc3n2CC(O)COc2ccccc2)cc1 (stereo unspecified)

>  <system>
Hepatitis B virus core protein

>  <cmp>
=

>  <selectivity ratio>
6.18

$$$$
>  <compound>
CCn1c(Cc2ccc(OC)cc2)nc2ccccc21

>  <system>
Hepatitis B virus core protein

>  <cmp>
=

>  <selectivity ratio>
6.55

$$$$

----------
Let's look at some molecules and their measured log10(IC50).
- system: Core antigen (Hepatitis B virus, UniProt Q03732)
- measurement protocol: Inhibition of Hepatitis B virus core protein expressed in HBC cells derived from HEK293T cells assessed as reduction in HBcAg level incubated for 6 hrs by Nano-glo luciferase assay
- Format: cell-based
- test parameters: read-out: IC50
assay metric: log10(IC50) (log10 of the value in µM)

>  <molecule>
CCn1c(Cc2ccc(OC)cc2)nc2ccccc21

>  <measured number>
0.65

$$$$
>  <molecule>
COc1ccc(Cc2nc3ccccc3n2CCCOc2ccccc2)cc1

>  <measured number>
0.10

$$$$
>  <molecule>
CCCCCn1c(Cc2ccc(OC)cc2)nc2ccccc21

>  <measured number>
0.88

$$$$
>  <molecule>
COc1ccc(Nc2nc3ccccc3[nH]2)cc1

>  <measured number>
0.79

$$$$
>  <molecule>
COc1ccc(Cc2nc3ccccc3n2CC(O)CO)cc1 (centres undefined)

>  <measured number>
0.49

$$$$
>  <molecule>
COCC(Cn1c(Cc2ccc(OC)cc2)nc2ccccc21)OC (centres undefined)

>  <measured number>
1.30

$$$$
>  <molecule>
COCCCn1c(Cc2ccc(OC)cc2)nc2ccccc21

>  <measured number>
0.98

$$$$
>  <molecule>
COc1ccc(Cc2nc3ccccc3[nH]2)cc1

>  <measured number>
0.31

$$$$
>  <molecule>
Fc1ccc(Sc2nc3ccccc3[nH]2)cc1

>  <measured number>
1.08

$$$$

Origin of the recorded values: ChEMBL document CHEMBL5512658
